Target: GIRK1 and GIRK2 (Homo sapiens, UniProt P48051+P48549)
Construct: expressed in transfected cells; host or cells: HEK-293
Sequence (P48549 1-501): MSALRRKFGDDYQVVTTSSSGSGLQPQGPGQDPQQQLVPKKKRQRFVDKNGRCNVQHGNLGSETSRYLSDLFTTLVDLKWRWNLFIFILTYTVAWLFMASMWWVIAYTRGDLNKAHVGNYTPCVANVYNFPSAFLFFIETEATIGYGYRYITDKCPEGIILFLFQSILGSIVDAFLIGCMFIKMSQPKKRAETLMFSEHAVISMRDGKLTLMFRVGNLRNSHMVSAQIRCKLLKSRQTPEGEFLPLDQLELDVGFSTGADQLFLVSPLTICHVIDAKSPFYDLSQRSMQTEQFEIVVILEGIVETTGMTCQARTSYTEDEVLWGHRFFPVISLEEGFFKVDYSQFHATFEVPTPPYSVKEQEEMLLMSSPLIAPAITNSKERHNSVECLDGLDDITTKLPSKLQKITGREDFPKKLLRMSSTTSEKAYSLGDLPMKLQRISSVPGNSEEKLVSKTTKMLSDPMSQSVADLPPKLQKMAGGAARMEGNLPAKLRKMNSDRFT
Sequence (P48051 1-423): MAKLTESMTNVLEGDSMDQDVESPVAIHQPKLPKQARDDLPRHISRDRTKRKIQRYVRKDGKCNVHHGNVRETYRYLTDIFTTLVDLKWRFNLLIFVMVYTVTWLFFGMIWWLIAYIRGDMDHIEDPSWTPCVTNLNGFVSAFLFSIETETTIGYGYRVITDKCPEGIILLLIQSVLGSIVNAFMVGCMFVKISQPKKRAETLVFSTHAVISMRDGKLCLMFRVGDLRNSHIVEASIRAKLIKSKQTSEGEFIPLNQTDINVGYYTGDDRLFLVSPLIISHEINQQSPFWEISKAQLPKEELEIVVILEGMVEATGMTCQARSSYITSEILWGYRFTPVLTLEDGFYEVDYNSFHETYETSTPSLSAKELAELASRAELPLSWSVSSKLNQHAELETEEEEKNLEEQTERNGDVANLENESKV
Assay: ML297 concentration response curves by Tl+ flux assay
Format: cell-based
Details: dye Thallos; bicarbonate stimulus buffer, 500 μM Tl^+, no-wash, 1 mM Allura Red AC
reported endpoint: pEC50
Numbers only, as −log10 of the molar value.

Report pEC50 for Cc1cc(NC(=O)Nc2ccc(F)c(F)c2)n(-c2ccccc2)n1 please.
6.66
